- METHOD: Pharmacokinetic study in ICR mice
- Assay type: in vivo
- SETUP_CONDITIONS: mouse, plasma, po, 100 mg/kg
PROPERTY_LABEL: bioavailability (%)
Use % as the unit, but write only the number.

Recorded bioavailability of `O=c1nc(N2CCN(CC3CCCCC3)CC2)sc2c([N+](=O)[O-])cc(C(F)(F)F)cc12` , please.
20.8

###

- METHOD: Cytotoxicity against VERO cells
- Type: cell-based
- SETUP_CONDITIONS: African green monkey, VERO cells (kidney epithelial cells)
PROPERTY_LABEL: CC50

Request the reported CC50 associated with CN(C)c1ccc(C(=O)OC2CCN(c3nc(=O)c4cc(C(F)(F)F)cc([N+](=O)[O-])c4s3)CC2)cc1 [Compound 2o]
> 10 µM

// query CC50 value for entry O=C(OC1CCN(c2nc(=O)c3cc(C(F)(F)F)cc([N+](=O)[O-])c3s2)CC1)c1ccccc1Cl [Compound 2j]
> 10 µM

For the molecule shown here, O=C1CN(c2nc(=O)c3cc(C(F)(F)F)cc([N+](=O)[O-])c3s2)CCN1CC1CCCCC1 [Compound 1c] , give the reported CC50.
> 10 µM

Value lookup for CC50; key = O=c1nc(N2CCC(Oc3ccc(F)cn3)CC2)sc2c([N+](=O)[O-])cc(C(F)(F)F)cc12 [Compound 3l]
> 10 µM

What CC50 value was documented for this molecule, C[C@H]1COC2(CCN(c3nc(=O)c4cc(C(F)(F)F)cc([N+](=O)[O-])c4s3)CC2)O1 [BTZ043] ?
> 10 µM

Form field: reported CC50 of O=C1CN(c2nc(=O)c3cc(C(F)(F)F)cc([N+](=O)[O-])c3s2)CCN1C1CCCCC1 [Compound 1b]
> 10 µM

Given the molecule CCOC(=O)CC1CCN(c2nc(=O)c3cc(C(F)(F)F)cc([N+](=O)[O-])c3s2)CC1 [Compound 2c] , what is its reported CC50?
> 10 µM

###

- METHOD: Pharmacokinetic study in ICR mice
- Assay type: in vivo
- SETUP_CONDITIONS: mouse, lung, iv, 10 mg/kg
PROPERTY_LABEL: MRT inf (h)
Numbers only here, please. The scale is h.

Reported MRT inf for `O=c1nc(N2CCN(CC3CCCCC3)CC2)sc2c([N+](=O)[O-])cc(C(F)(F)F)cc12` : what is it?
4.5

###

What half-life was measured for each of the following?
- METHOD: in vitro
- SETUP_CONDITIONS: mouse, microsomes, pH 7.5
Answer in min, number only, no unit symbol.

Requested read-out: half-life. Entry: O=c1nc(N2CCN(CC3CCCCC3)CC2)sc2c([N+](=O)[O-])cc(C(F)(F)F)cc12 [PBTZ169]
14.4

Quick one: half-life for C[C@H]1COC2(CCN(c3nc(=O)c4cc(C(F)(F)F)cc([N+](=O)[O-])c4s3)CC2)O1 [BTZ043] ?
16.7

Entry under review: O=C1CN(c2nc(=O)c3cc(C(F)(F)F)cc([N+](=O)[O-])c3s2)CCN1C1CCCC1 [Compound 1a] . Reported half-life?
9.4

###

- METHOD: Pharmacokinetic study in ICR mice
- Type: in vivo
- SETUP_CONDITIONS: mouse, plasma, iv, 10 mg/kg
PROPERTY_LABEL: Tmax (min)
Response body: numeric value in min, unit text excluded.

Please give the measured Tmax for this molecule: `O=c1nc(N2CCN(CC3CCCCC3)CC2)sc2c([N+](=O)[O-])cc(C(F)(F)F)cc12`
4.8

###

- METHOD: Pharmacokinetic study in ICR mice
- Assay type: in vivo
- SETUP_CONDITIONS: mouse, lung, iv, 10 mg/kg
PROPERTY_LABEL: Tmax (min)
Express your answer in min, writing the number without its unit.

I'd like to know its Tmax. The compound in question is `O=c1nc(N2CCN(CC3CCCCC3)CC2)sc2c([N+](=O)[O-])cc(C(F)(F)F)cc12`
4.8

###

- METHOD: Pharmacokinetic study in ICR mice
- Type: in vivo
- SETUP_CONDITIONS: mouse, lung, po, 100 mg/kg
PROPERTY_LABEL: AUC(0-inf) (ng·h/mL)
Report the figure in ng·h/mL without appending any unit label.

Consider the molecule O=c1nc(N2CCN(CC3CCCCC3)CC2)sc2c([N+](=O)[O-])cc(C(F)(F)F)cc12 [PBTZ169] and give its measured AUC(0-inf).
7840

###

- METHOD: Pharmacokinetic study in ICR mice
- Format: in vivo
- SETUP_CONDITIONS: mouse, plasma, iv, 10 mg/kg
PROPERTY_LABEL: AUC(0-inf) (ng·h/mL)
Record the value in ng·h/mL, omitting the unit from your answer.

Fill in: AUC(0-inf) of `O=c1nc(N2CCN(CC3CCCCC3)CC2)sc2c([N+](=O)[O-])cc(C(F)(F)F)cc12` is ___
9070

###

- METHOD: Pharmacokinetic study in ICR mice
- Assay type: in vivo
- SETUP_CONDITIONS: mouse, plasma, po, 100 mg/kg
PROPERTY_LABEL: Tmax (h)
# output: bare number, implied unit h

Recorded Tmax for `O=c1nc(N2CCN(CC3CCCCC3)CC2)sc2c([N+](=O)[O-])cc(C(F)(F)F)cc12` , please?
2

###

- METHOD: Pharmacokinetic study in ICR mice
- Assay type: in vivo
- SETUP_CONDITIONS: mouse, plasma, po, 100 mg/kg
PROPERTY_LABEL: MRT inf (h)
Return type: number; implicit unit h.

Can you look up the measured MRT inf of `O=c1nc(N2CCN(CC3CCCCC3)CC2)sc2c([N+](=O)[O-])cc(C(F)(F)F)cc12` for me?
3.7

###

- METHOD: Pharmacokinetic study in ICR mice
- Format: in vivo
- SETUP_CONDITIONS: mouse, lung, po, 100 mg/kg
PROPERTY_LABEL: half-life

Quick one: half-life of `O=c1nc(N2CCN(CC3CCCCC3)CC2)sc2c([N+](=O)[O-])cc(C(F)(F)F)cc12` ?
254 min

###

- METHOD: in vitro
- SETUP_CONDITIONS: rat, microsomes, pH 7.5
PROPERTY_LABEL: half-life (min)
Number in min, nothing else.

Consider the molecule `O=c1nc(N2CCN(CC3CCCCC3)CC2)sc2c([N+](=O)[O-])cc(C(F)(F)F)cc12` and give its measured half-life.
14.7

Would you kindly share the measured half-life for `C[C@H]1COC2(CCN(c3nc(=O)c4cc(C(F)(F)F)cc([N+](=O)[O-])c4s3)CC2)O1` ?
22

For `O=C1CN(c2nc(=O)c3cc(C(F)(F)F)cc([N+](=O)[O-])c3s2)CCN1C1CCCC1` , what is its reported half-life?
15.6

###

- METHOD: Pharmacokinetic study in ICR mice
- Format: in vivo
- SETUP_CONDITIONS: mouse, plasma, iv, 10 mg/kg
PROPERTY_LABEL: half-life (h)
I only need the number, in h, no unit after it.

Quick one: half-life of `O=c1nc(N2CCN(CC3CCCCC3)CC2)sc2c([N+](=O)[O-])cc(C(F)(F)F)cc12` ?
2.67

###

- METHOD: Pharmacokinetic study in ICR mice
- Assay type: in vivo
- SETUP_CONDITIONS: mouse, lung, po, 100 mg/kg
PROPERTY_LABEL: Tmax (min)
Kindly provide the numeric value in min only, without the unit symbol.

What measured Tmax goes with `O=c1nc(N2CCN(CC3CCCCC3)CC2)sc2c([N+](=O)[O-])cc(C(F)(F)F)cc12` ?
30

###

- METHOD: Pharmacokinetic study in ICR mice
- Type: in vivo
- SETUP_CONDITIONS: mouse, lung, po, 100 mg/kg
PROPERTY_LABEL: Cmax
Put your answer as a value accompanied by its unit after it.

I would be grateful if you could share the reported Cmax for O=c1nc(N2CCN(CC3CCCCC3)CC2)sc2c([N+](=O)[O-])cc(C(F)(F)F)cc12 [PBTZ169] .
811 ng/mL

###

Exercise: for every item that follows, state its recorded Papp A→B.
- METHOD: in vitro
- SETUP_CONDITIONS: dog, MDCK-MDR1, pH 7.4, Mean Papp A to B, A to B
# value in ×10⁻⁶ cm/s; strip the unit string

May I ask what Papp A→B has been recorded for `O=c1nc(N2CCN(CC3CCCCC3)CC2)sc2c([N+](=O)[O-])cc(C(F)(F)F)cc12` ?
0.74

Need Papp A→B, item `C[C@H]1COC2(CCN(c3nc(=O)c4cc(C(F)(F)F)cc([N+](=O)[O-])c4s3)CC2)O1`
9.02

What value of measured Papp A→B is listed for `O=C1CN(c2nc(=O)c3cc(C(F)(F)F)cc([N+](=O)[O-])c3s2)CCN1C1CCCC1` ?
10.6

The origin of these recorded values is paper PMC9078972.
